The following molecules are listed with their measured log10 IC50 values.
target: rat kidney medullary V2 receptors (Rattus norvegicus)
Sequence (Q00788 whole entry): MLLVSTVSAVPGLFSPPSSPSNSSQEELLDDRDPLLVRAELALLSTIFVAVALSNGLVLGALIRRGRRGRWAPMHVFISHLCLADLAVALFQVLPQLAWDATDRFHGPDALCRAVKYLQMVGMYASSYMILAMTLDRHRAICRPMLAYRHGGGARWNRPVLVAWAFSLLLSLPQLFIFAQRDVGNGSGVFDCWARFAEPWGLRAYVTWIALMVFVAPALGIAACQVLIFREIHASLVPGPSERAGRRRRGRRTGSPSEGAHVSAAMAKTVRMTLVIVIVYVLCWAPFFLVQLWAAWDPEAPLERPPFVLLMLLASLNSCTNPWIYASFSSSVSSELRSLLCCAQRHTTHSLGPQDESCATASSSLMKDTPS
// stored as log10 of IC50 expressed in nM

Sample records with log10 IC50:
• O=C(Nc1ccc(C(=O)N2Cc3ccccc3Cc3cc(Cl)ccc32)cc1)c1ccc(Cl)cc1Cl = 1.81
• Cc1ccccc1C(=O)Nc1ccc(C(=O)N2CCc3cn(C)nc3-c3ccccc32)cc1 = 1.72
• Cc1ccccc1C(=O)Nc1ccc(C(=O)N2Cc3ccccc3Cc3cc(Cl)ccc32)cc1 = 1.43
• Cc1ccc(F)cc1C(=O)Nc1ccc(C(=O)N2CCc3c[nH]nc3-c3ccccc32)cc1 = 1.04
• O=C(Nc1ccc(C(=O)N2Cc3ccccc3Cc3ccccc32)cc1)c1cccc(Cl)c1Cl = 2.28

Then this molecule:
Task: // fetch log10 IC50; item: "Cc1ccccc1C(=O)N(C)c1ccc(C(=O)N2Cc3ccccc3Cc3ccccc32)cc1" ; system: rat kidney medullary V2 receptors (Rattus norvegicus)
Output: 2.63

The measurements presented in this section are drawn from patent US5834461A.
